- assay method text: Plasma pharmacokinetics after single and multiple oral doses
- Assay type: in vivo, Japanese patients
- condition summary: human, plasma, oral
reported endpoint: half-life
Kindly format the answer as number then unit.

Query (molecule): CN1CC[C@@H](NC(=O)Nc2ccc(C#N)cc2)C[C@@H]1c1nc2ccccc2[nH]1 ; field requested: half-life 20.7 h

====

- assay method text: Plasma pharmacokinetics after single and multiple oral doses
- Format: in vivo, Japanese patients
- condition summary: human, plasma, po, 50 mg
reported endpoint: AUC(0-inf)

Query (molecule): CN1CC[C@@H](NC(=O)Nc2ccc(C#N)cc2)C[C@@H]1c1nc2ccccc2[nH]1 ; field requested: AUC(0-inf) 9590 ng·h/mL

====

- assay method text: Plasma pharmacokinetics after single and multiple oral doses
- Format: in vivo, Japanese patients
- condition summary: human, plasma, po, 50 mg
reported endpoint: half-life (h)
Record the value in h, omitting the unit from your answer.

Query (compound): CN1CC[C@@H](NC(=O)Nc2ccc(C#N)cc2)C[C@@H]1c1nc2ccccc2[nH]1 ; field requested: half-life 30.3

====

- assay method text: Plasma pharmacokinetics after single and multiple oral doses
- Format: in vivo, Japanese patients
- condition summary: human, plasma, po, 100 mg
reported endpoint: half-life
Kindly format the answer as number then unit.

Query (compound): CN1CC[C@@H](NC(=O)Nc2ccc(C#N)cc2)C[C@@H]1c1nc2ccccc2[nH]1 ; field requested: half-life 1030 min

====

- assay method text: Plasma pharmacokinetics after single and multiple oral doses
- Assay type: in vivo, Japanese patients
- condition summary: human, plasma, po, 25 mg
reported endpoint: half-life (h)
Record the value in h, omitting the unit from your answer.

Query (compound): CN1CC[C@@H](NC(=O)Nc2ccc(C#N)cc2)C[C@@H]1c1nc2ccccc2[nH]1 ; field requested: half-life 15.3

====

- assay method text: Plasma pharmacokinetics after single and multiple oral doses
- Type: in vivo, Japanese patients
- condition summary: human, plasma, po, 100 mg
reported endpoint: Tmax (h)
Record the value in h, omitting the unit from your answer.

Query (compound): CN1CC[C@@H](NC(=O)Nc2ccc(C#N)cc2)C[C@@H]1c1nc2ccccc2[nH]1 ; field requested: Tmax 2

====

- assay method text: Plasma pharmacokinetics after single and multiple oral doses
- Assay type: in vivo, Japanese patients
- condition summary: human, plasma, po, 25 mg
reported endpoint: Tmax (h)
Record the value in h, omitting the unit from your answer.

Query (compound): CN1CC[C@@H](NC(=O)Nc2ccc(C#N)cc2)C[C@@H]1c1nc2ccccc2[nH]1 ; field requested: Tmax 2

====

- assay method text: Plasma pharmacokinetics after single and multiple oral doses
- Assay type: in vivo, Japanese patients
- condition summary: human, plasma, po, 100 mg
reported endpoint: AUC(0-inf)
Kindly format the answer as number then unit.

Query (compound): CN1CC[C@@H](NC(=O)Nc2ccc(C#N)cc2)C[C@@H]1c1nc2ccccc2[nH]1 ; field requested: AUC(0-inf) 13100 ng·h/mL

====

- assay method text: Plasma pharmacokinetics after single and multiple oral doses
- Format: in vivo, Japanese patients
- condition summary: human, plasma, po, 25 mg
reported endpoint: Vd/F
Kindly format the answer as number then unit.

Query (molecule): CN1CC[C@@H](NC(=O)Nc2ccc(C#N)cc2)C[C@@H]1c1nc2ccccc2[nH]1 ; field requested: Vd/F 165 L

====

- assay method text: Plasma pharmacokinetics after single and multiple oral doses
- Assay type: in vivo, Japanese patients
- condition summary: human, plasma, po, 50 mg
reported endpoint: Vd/F (L)
Record the value in L, omitting the unit from your answer.

Query (compound): CN1CC[C@@H](NC(=O)Nc2ccc(C#N)cc2)C[C@@H]1c1nc2ccccc2[nH]1 ; field requested: Vd/F 225
